TARGET OR TEST SYSTEM: Ubiquitin-like modifier-activating enzyme ATG7 (Homo sapiens)
Sequence (O95352 whole entry): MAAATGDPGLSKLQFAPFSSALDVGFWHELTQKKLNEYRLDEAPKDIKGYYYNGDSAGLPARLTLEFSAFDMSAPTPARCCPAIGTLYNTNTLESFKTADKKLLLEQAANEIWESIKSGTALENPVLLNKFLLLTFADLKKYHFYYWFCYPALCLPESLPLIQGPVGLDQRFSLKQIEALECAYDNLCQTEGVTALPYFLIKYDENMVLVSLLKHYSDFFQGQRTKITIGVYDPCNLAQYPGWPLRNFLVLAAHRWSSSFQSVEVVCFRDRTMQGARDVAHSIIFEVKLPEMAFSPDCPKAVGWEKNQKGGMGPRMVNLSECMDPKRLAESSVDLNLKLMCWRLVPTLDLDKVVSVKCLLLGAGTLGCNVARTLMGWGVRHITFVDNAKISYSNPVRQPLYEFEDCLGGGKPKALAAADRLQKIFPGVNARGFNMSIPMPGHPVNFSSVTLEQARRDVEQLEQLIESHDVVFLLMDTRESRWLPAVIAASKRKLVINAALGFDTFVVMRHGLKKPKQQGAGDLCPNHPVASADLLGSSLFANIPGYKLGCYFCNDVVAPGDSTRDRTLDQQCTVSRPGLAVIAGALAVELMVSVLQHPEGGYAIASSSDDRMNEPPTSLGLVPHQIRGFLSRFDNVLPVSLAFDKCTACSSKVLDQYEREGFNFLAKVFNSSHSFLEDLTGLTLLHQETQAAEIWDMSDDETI
TEST DESCRIPTION: Inhibition of recombinant His-tagged human ATG7 incubated for 105 mins in presence of GST-tagged ATG3 and Flag-tagged Gabarap and measured after 2 hrs by FRET assay
pIC50: −log10 of the molar value.
Parameter: pIC50. Scope: all listed entries.

CCc1nn([C@H]2C[C@H](O)[C@H](COS(N)(=O)=O)O2)c2ncnc(N)c12 | < 6.30

Kindly consider the entry below.
Query: pIC50; subject: Nc1ncnc2c1c(SCCO)nn2[C@@H]1O[C@H](COS(N)(=O)=O)[C@@H](O)[C@@H]1F
7.30 to 7.70
